Biological target: SIRT1 (Homo sapiens)
Sequence (Q96EB6 whole entry): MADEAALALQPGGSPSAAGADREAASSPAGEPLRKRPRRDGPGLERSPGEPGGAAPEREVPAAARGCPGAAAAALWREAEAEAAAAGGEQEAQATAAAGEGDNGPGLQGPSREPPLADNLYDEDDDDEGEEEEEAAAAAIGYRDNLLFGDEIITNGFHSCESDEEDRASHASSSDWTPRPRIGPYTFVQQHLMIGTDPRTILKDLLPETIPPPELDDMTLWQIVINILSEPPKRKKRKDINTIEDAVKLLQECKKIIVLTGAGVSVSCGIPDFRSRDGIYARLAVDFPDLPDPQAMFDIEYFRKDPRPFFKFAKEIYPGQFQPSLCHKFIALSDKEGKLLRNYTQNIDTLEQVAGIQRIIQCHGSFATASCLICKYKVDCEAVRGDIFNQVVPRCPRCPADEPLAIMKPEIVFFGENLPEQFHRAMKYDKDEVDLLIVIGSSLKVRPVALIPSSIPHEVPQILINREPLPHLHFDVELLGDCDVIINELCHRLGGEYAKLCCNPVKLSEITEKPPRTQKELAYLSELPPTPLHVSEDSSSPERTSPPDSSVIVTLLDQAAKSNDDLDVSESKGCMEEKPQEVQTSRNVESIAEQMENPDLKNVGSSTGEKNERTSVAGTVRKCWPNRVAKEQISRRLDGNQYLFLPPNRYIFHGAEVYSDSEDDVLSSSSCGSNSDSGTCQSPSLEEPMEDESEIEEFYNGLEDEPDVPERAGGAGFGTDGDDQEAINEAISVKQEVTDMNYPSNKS
Assay: Trp mass spectrometry assay of SIRT1 deacetylase activation
Type: biochemical
Conditions: concentration that results in 150% activation of SIRT1; Trp peptide substrate
Experimental: Mass spectrometry based assays were used to identify modulators of SIRT1 activity. The TAMRA based assay utilized a peptide having 20 amino acid residues as follows: Ac-EE-K(biotin)-GQSTSSHSK(Ac)NleSTEG-K(5TMR)-EE-NH2 (SEQ ID NO: 1), wherein K(Ac) is an acetylated lysine residue and Nle is a norleucine. […] The Trp mass spectrometry assay was conducted as follows. […] Test compound was added at varying concentrations to this reaction mixture and the resulting reactions were monitored. […]
Readout label: TRP EC1.5 (μM)

Smiles representation	Measured result
O=C(Nc1ccccn1)c1cc(N2CCOCC2)nn2cc(-c3ccccc3Cl)nc12	C (EC1.5>25 μM)
Cc1cnc(C(=O)Nc2ccnc3cc(-c4cccc(C(F)(F)F)c4)nn23)s1	C (EC1.5>25 μM)
O=C(Nc1cccc(N2CCOCC2)n1)c1ccnc2cc(-c3ccccc3C(F)(F)F)nn12	C (EC1.5>25 μM)
O=C(Nc1nccs1)c1cc(N2CCOCC2)nn2cc(-c3ccccc3C(F)(F)F)nc12	C (EC1.5>25 μM)
O=C(Nc1ccnc2cc(-c3cccc(C(F)(F)F)c3)nn12)c1ncccn1	C (EC1.5>25 μM)
O=C(Nc1cccc(CN2CCOCC2)n1)c1ccnc2cc(-c3ccccc3C(F)(F)F)nn12	B (EC1.5 1−25 μM)
O=C(Nc1ncccn1)c1ccnc2cc(-c3ccccc3C(F)(F)F)nn12	B (EC1.5 1−25 μM)

GET /values?readout=TRP EC1.5 (μM)&item= "O=C(Nc1nccs1)c1ccnc2cc(-c3cccc(C(F)(F)F)c3)nn12"
C (EC1.5>25 μM)
